# Measured Target: JAK3 (Homo sapiens, UniProt P52333)
# Construct: endogenous in cells; mixed lysate 1:2
# Sequence (P52333 whole entry): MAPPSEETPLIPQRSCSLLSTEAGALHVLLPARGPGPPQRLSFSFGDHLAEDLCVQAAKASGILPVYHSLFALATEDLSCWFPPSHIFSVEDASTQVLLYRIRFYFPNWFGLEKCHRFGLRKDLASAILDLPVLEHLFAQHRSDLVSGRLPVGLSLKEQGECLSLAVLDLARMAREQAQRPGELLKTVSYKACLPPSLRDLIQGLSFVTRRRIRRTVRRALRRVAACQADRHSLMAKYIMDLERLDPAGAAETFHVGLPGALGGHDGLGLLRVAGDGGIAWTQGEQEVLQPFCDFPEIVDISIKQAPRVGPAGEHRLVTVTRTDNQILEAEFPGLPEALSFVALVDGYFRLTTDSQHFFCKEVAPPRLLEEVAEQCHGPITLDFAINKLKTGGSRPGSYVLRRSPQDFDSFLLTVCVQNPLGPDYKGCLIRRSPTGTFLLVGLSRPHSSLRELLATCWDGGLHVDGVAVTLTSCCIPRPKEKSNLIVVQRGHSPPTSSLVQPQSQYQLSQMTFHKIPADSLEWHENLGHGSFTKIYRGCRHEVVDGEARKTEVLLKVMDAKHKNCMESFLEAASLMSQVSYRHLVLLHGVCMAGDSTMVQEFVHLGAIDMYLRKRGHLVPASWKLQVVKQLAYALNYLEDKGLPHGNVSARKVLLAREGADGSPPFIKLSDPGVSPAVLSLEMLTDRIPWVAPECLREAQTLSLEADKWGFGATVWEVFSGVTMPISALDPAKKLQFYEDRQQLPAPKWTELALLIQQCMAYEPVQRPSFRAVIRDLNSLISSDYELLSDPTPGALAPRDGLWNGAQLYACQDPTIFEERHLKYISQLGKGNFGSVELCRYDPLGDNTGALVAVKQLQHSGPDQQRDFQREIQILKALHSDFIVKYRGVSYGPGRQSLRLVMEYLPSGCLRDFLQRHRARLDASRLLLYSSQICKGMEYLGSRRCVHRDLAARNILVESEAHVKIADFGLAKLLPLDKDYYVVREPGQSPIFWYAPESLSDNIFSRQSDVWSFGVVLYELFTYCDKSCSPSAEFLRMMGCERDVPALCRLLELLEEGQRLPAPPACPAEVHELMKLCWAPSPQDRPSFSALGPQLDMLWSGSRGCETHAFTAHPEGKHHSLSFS
# Measurement Protocol: Kinobeads assay with immunodetection, JAK3
# Condition Parameters: Kinobeads assay, mixed Molt4/Ramos lysate; read-out: Inhibition values (IC50) JAK3
Structures can show the parent of a compound that is named as a salt.
Documented IC50 across a set of molecules

// solved cases for IC50 follow
INSERT INTO assay_data (molecule, measured_metric, result) VALUES
  ('CS(=O)(=O)N1CCC[C@@H]1CNc1nc(Nc2cnn(CCO)c2)ncc1Cl [Example 6]', 'IC50', '< 0.1 µM'),
  ('Cc1cnc(Nc2cnn(CC(F)F)c2)nc1NC[C@@H]1C[C@H](F)CN1CCC#N [Example 121]', 'IC50', '0.1 to 1 µM'),
  ('Cc1cnc(Nc2cnn(C)c2)nc1NC[C@@H]1C[C@H](F)CN1CC#N [Example 102]', 'IC50', '0.1 to 1 µM'),
  ('Cn1cc(Nc2ncc(Cl)c(NC[C@H]3CCN(C(=O)CC#N)C3)n2)cn1 [Example 58]', 'IC50', '< 0.1 µM'),
  ('Cn1cc(Nc2ncc(Cl)c(NC[C@@H]3C[C@H](F)CN3CCCS(C)(=O)=O)n2)cn1 [Example 132]', 'IC50', '0.1 to 1 µM'),
  ('CN(C)C(=O)Cn1cc(Nc2ncc(Cl)c(NC[C@@H]3CCCN3S(C)(=O)=O)n2)cn1 [Example 69]', 'IC50', '< 0.1 µM'),
  ('CC(=O)N1CC(CNc2nc(Nc3cnn(C)c3)ncc2Cl)C1 [Example 16]', 'IC50', '> 10 µM'),
  ('Cc1cnc(Nc2cnn(CC(F)F)c2)nc1NC[C@@H]1C[C@H](F)CN1C(=O)CCC#N [Example 122]', 'IC50', '1 to 10 µM'),
  ('Cn1cc(Nc2ncc(Cl)c(NC[C@@H]3CCN(S(C)(=O)=O)C3)n2)cn1 [Example 30]', 'IC50', '0.1 to 1 µM'),
  ('Cl.Cn1cc(Nc2ncc(F)c(NC[C@H]3CCCN3S(C)(=O)=O)n2)cn1 [Example 74, Hydrochloride]', 'IC50', '0.1 to 1 µM');

# input Item CC(C)NC(=O)Cn1cc(Nc2nccc(NC[C@H]3CCCN3C(=O)CCC#N)n2)cn1 [Example 94] has what recorded IC50?
# output 1 to 10 µM

# input Item CN(C)C(=O)Cn1cc(Nc2ncc(Cl)c(NC[C@@H]3CCCN3)n2)cn1 [Example 66] has what recorded IC50?
# output 1 to 10 µM

# input Item Cn1cc(Nc2ncc(F)c(NC[C@H]3CCCN3CCC#N)n2)cn1 [Example 112] has what recorded IC50?
# output 0.1 to 1 µM

# input Item Cn1cc(Nc2ncc(Cl)c(NC[C@H]3CCCN3S(=O)(=O)C3CC3)n2)cn1 [Example 98] has what recorded IC50?
# output < 0.1 µM

# input Item Cc1cnc(Nc2cnn(C)c2)nc1NC[C@H]1CCCN1 [Example 72, Hydrochloride] has what recorded IC50?
# output > 10 µM

# input Item CN(C)CC(=O)N1CC[C@H](CNc2nc(Nc3cnn(C)c3)ncc2Cl)C1 [Example 59] has what recorded IC50?
# output 1 to 10 µM

###

Documented pIC50 across a set of molecules
# Measured Target: JAK1 (Homo sapiens, UniProt P23458)
# Construct: endogenous in cells; mixed lysate 1:2
# Sequence (P23458 whole entry): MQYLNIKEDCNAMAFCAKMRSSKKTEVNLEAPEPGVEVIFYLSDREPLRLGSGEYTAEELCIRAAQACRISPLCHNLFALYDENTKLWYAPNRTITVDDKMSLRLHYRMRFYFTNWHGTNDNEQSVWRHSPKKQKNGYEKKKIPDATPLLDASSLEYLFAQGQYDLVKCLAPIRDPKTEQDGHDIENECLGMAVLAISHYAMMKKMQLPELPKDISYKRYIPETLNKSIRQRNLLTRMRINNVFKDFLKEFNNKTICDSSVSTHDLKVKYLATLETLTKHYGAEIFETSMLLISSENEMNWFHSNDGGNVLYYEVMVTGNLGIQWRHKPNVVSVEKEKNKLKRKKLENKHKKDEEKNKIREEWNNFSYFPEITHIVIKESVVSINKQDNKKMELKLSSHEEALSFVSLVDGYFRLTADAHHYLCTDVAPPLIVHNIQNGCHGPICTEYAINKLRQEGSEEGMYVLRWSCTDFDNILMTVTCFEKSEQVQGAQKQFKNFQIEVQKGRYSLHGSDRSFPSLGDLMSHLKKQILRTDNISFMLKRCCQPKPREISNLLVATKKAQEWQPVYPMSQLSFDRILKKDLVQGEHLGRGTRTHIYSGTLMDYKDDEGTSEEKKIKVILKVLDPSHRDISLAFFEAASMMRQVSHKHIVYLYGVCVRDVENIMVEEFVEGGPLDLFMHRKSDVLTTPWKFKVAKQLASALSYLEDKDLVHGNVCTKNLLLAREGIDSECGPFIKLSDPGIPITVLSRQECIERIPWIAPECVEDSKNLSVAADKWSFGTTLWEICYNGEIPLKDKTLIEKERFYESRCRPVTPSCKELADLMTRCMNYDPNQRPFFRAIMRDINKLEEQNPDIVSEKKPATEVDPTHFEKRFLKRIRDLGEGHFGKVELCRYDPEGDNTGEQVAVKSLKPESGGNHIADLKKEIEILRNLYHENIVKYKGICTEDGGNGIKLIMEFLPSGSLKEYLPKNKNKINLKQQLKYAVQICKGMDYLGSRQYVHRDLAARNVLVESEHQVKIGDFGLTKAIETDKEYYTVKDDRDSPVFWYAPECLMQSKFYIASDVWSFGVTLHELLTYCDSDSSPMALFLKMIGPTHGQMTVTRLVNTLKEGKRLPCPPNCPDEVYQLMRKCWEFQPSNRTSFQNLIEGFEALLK
# Measurement Protocol: Kinobeads assay with immunodetection, JAK1
# Condition Parameters: Kinobeads assay, mixed Molt4/Ramos lysate; read-out: Inhibition values (IC50) JAK1
pIC50: −log10 of the molar value.

// solved cases for pIC50 follow
INSERT INTO results (molecule, measured_target, measured_metric, result) VALUES
  ('C=CC(=O)N1CCCC[C@@H]1CNc1nc(Nc2cnn(CCO)c2)ncc1Cl [Example 42]', 'JAK1 (Homo sapiens, UniProt P23458)', 'pIC50', '6.00 to 7.00'),
  ('Cn1cc(Nc2ncc(Cl)c(NCC3CCOCC3)n2)cn1 [Example 46]', 'JAK1 (Homo sapiens, UniProt P23458)', 'pIC50', '6.00 to 7.00'),
  ('Cn1cc(Nc2ncc(Cl)c(NC[C@H]3CCCN3C3CCS(=O)(=O)C3)n2)cn1 (some centres unmarked) [Example 115]', 'JAK1 (Homo sapiens, UniProt P23458)', 'pIC50', '> 7.00'),
  ('C=CC(=O)N1CCCC[C@H]1CNc1nc(Nc2cnn(CCO)c2)ncc1Cl [Example 35]', 'JAK1 (Homo sapiens, UniProt P23458)', 'pIC50', '6.00 to 7.00');

Let us move to another entry and its pIC50.
# input Given the entry Cn1cc(Nc2ncc(Cl)c(NCC3COCCN3CCS(C)(=O)=O)n2)cn1 (centres unmarked) [Example 87] , what pIC50 was observed with JAK1 (Homo sapiens, UniProt P23458)?
# output 6.00 to 7.00
